Reported Ki values, UniProtKB P28221.
Sequence (P28221 whole entry): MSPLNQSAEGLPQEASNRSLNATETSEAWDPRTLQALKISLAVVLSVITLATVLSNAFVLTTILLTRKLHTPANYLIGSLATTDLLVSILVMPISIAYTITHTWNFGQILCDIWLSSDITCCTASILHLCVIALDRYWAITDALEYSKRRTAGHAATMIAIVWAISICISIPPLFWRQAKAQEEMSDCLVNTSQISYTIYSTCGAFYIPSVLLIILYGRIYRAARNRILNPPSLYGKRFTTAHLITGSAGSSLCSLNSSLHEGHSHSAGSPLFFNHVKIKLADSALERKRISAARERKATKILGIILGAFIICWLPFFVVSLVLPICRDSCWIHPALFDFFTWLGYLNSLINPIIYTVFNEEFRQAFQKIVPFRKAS
readout.label: Ki (nM)

record.smiles | tested.target | Ki (nM)
Cc1ccc2c(OCCN3CCC(Cc4ccc5c(c4)NC(=O)CO5)CC3)c(F)ccc2n1 | UniProtKB P28221 | 2.51
Cc1ccc2c(OCCN3CCC(Cc4cc(F)c5c(c4)NC(=O)CO5)CC3)cccc2n1 | UniProtKB P28221 | 0.398
Cc1ccc2c(OCCN3CCC(Cc4ccc5c(c4)NC(=O)CO5)CC3)cc(Cl)cc2n1 | UniProtKB P28221 | 794

(A) Cc1ccc2c(OCCN3CCC(Cc4ccc5c(c4F)NC(=O)CO5)CC3)cc(F)cc2n1
(B) Cc1ccc2c(OCCN3CCC(Cc4ccc5c(c4)NC(=O)CO5)CC3)cc(C#N)cc2n1
[Q] // max by Ki over [ A , B ] Kindly give the label for the entry you pick.
[A] B
(B: 251 nM, A: 100 nM)

====

Consider compounds characterized by their pKi with 5-hydroxytryptamine receptor 1B (Homo sapiens, UniProt P28222).
Sequence (P28222 whole entry): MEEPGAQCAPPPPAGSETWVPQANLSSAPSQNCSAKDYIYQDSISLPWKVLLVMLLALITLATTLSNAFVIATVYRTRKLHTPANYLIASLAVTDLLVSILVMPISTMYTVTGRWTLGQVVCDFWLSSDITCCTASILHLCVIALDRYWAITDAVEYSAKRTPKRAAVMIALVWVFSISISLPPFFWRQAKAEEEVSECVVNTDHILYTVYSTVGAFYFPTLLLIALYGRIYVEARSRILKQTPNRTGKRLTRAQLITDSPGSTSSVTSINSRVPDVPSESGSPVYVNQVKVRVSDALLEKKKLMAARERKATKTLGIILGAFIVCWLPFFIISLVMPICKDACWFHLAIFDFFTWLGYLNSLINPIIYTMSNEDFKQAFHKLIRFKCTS
pKi: −log10 of the molar value.
readout.label: pKi

record.smiles | endpoint.result
Cc1ccc2c(OCCN3CCC(Cc4ccc5c(c4F)NC(=O)CO5)CC3)cc(F)cc2n1 | 6.40

(I) Cc1ccc2c(OCCN3CCC(Cc4ccc5c(c4)NC(=O)CO5)CC3)cc(C#N)cc2n1
(II) Cc1ccc2c(OCCN3CCC(Cc4ccc5c(c4F)NC(=O)CO5)CC3)cc(Cl)cc2n1
[Q] So which one has the bigger pKi here, I or II ? Answer format: the label of the selected item.
[A] I
(I: 6.00, II: 5.80)

(P) Cc1ccc2c(OCCN3CCC(Cc4cc5c(cc4F)OCC(=O)N5)CC3)cccc2n1
(Q) Cc1ccc2c(OCCN3CCC(Cc4ccc5c(c4)NC(=O)CO5)CC3)ccc(F)c2n1
(R) Cc1ccc2c(OCCN3CCC(Cc4ccc5c(c4)NC(=O)CO5)CC3)c(F)ccc2n1
(S) Cc1ccc2c(OCCN3CCC(Cc4cc5c(cc4F)OCC(=O)N5)CC3)cc(Cl)cc2n1
[Q] Let's sort these by pKi, smallest first. Go ahead? Output the labels ranked as instructed.
[A] S, Q, R, P

====

assay.info: Blood clearance in rat at 3 mg/kg, po
Format: ADME, organism-based
Parameters: dose 3 mg/kg, route oral
condition.details: whole blood
readout.label: CL/F (mL/min/kg)

record.smiles | CL/F / mL/min/kg
Cc1ccc2c(OCCN3CCC(Cc4cc(F)c5c(c4)NC(=O)CO5)CC3)cccc2n1 | 22
Cc1ccc2c(OCCN3CCC(Cc4cc(F)c5c(c4)NC(=O)CO5)CC3)cc(F)cc2n1 | 25
Cc1ccc2c(OCCN3CCC(Cc4ccc5c(c4)NC(=O)CO5)CC3)cc(F)cc2n1 | 25

(I) Cc1ccc2c(OCCN3CCC(Cc4ccc5c(c4)NC(=O)CO5)CC3)cc(Cl)cc2n1
(II) Cc1ccc2c(OCCN3CCC(Cc4cc(F)c5c(c4)NC(=O)CO5)CC3)cc(Cl)cc2n1
[Q] Which of these two has the smaller recorded CL/F: I or II ? Select an item and report its label.
[A] II

====

tested.target: 5-hydroxytryptamine receptor 1A (Homo sapiens, UniProt P08908)
Sequence (P08908 whole entry): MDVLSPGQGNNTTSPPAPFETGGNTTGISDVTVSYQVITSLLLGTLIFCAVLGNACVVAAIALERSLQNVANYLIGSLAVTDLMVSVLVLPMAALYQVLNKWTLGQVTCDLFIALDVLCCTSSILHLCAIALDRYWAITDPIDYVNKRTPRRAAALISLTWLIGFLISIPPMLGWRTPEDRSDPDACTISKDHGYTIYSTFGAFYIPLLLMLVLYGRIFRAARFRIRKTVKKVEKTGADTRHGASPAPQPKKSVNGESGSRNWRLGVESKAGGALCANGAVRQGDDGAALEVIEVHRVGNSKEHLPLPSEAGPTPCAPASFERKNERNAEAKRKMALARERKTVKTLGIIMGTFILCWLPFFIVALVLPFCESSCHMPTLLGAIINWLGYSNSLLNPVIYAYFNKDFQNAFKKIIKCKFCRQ
pKi: −log10 of the molar value.
readout.label: pKi

record.smiles | pKi
Cc1ccc2c(OCCN3CCC(Cc4cc(F)c5c(c4)NC(=O)CO5)CC3)cccc2n1 | 8.30
Cc1ccc2c(OCCN3CCC(Cc4ccc5c(c4)NC(=O)CO5)CC3)cc(Cl)cc2n1 | 8.80
Cc1ccc2c(OCCN3CCC(Cc4cc(F)c5c(c4)NC(=O)CO5)CC3)cc(F)cc2n1 | 8.40
Cc1ccc2c(OCCN3CCC(Cc4ccc5c(c4F)NC(=O)CO5)CC3)cc(Cl)cc2n1 | 8.60

(1) Cc1ccc2c(OCCN3CCC(Cc4ccc5c(c4F)NC(=O)CO5)CC3)cc(F)cc2n1
(2) Cc1ccc2c(OCCN3CCC(Cc4cc(F)c5c(c4)NC(=O)CO5)CC3)cc(Cl)cc2n1
[Q] Of the two listed items, which has the higher pKi? First: 1 Second: 2 Give the chosen item's label as your response.
[A] 1
(1: 8.80, 2: 8.00)

====

assay.info: Ratio of drug level in brain to blood in rat
readout.label: Kp

(1) Cc1ccc2c(OCCN3CCC(Cc4ccc5c(c4F)NC(=O)CO5)CC3)cc(F)cc2n1
(2) Cc1ccc2c(OCCN3CCC(Cc4ccc5c(c4F)NC(=O)CO5)CC3)cccc2n1
(3) Cc1ccc2c(OCCN3CCC(Cc4ccc5c(c4)NC(=O)CO5)CC3)cc(Cl)cc2n1
(4) Cc1ccc2c(OCCN3CCC(Cc4cc5c(cc4F)OCC(=O)N5)CC3)cc(F)cc2n1
(5) Cc1ccc2c(OCCN3CCC(Cc4cc(F)c5c(c4)NC(=O)CO5)CC3)cc(F)cc2n1
[Q] Could you please order the items by Kp, going from the lowest number to the highest? Lab note: record answer as labels in requested order.
[A] 3, 5, 4, 2, 1

====

A set of compounds tested on 5-hydroxytryptamine receptor 6 (Homo sapiens), with measured pKi:
pKi: −log10 of the molar value.

[Q] # query: pKi | item "Cc1ccc2c(OCCN3CCC(Cc4cc(F)c5c(c4)NC(=O)CO5)CC3)cc(F)cc2n1" | system: 5-hydroxytryptamine receptor 6 (Homo sapiens)
[A] < 5.20

[Q] Further, for "Cc1ccc2c(OCCN3CCC(Cc4cc5c(cc4F)OCC(=O)N5)CC3)cc(Cl)cc2n1" ?
[A] 5.10

[Q] Cool, now "Cc1ccc2c(OCCN3CCC(Cc4cc(F)c5c(c4)NC(=O)CO5)CC3)cc(Cl)cc2n1"
[A] < 5.00

[Q] One more compound: "Cc1ccc2c(OCCN3CCC(Cc4cc5c(cc4F)OCC(=O)N5)CC3)cc(F)cc2n1"
[A] < 6.00

====

assay.info: Oral bioavailability in rat at 3 mg/kg, po
Assay type: ADME, organism-based
condition.details: in vivo
readout.label: bioavailability (%)

(A) Cc1ccc2c(OCCN3CCC(Cc4ccc5c(c4)NC(=O)CO5)CC3)cccc2n1
(B) Cc1ccc2c(OCCN3CCC(Cc4cc(F)c5c(c4)NC(=O)CO5)CC3)cc(F)cc2n1
[Q] Field: lower recorded bioavailability (choose A or B ) Please respond with the label that marks your chosen entry.
[A] A

====

tested.target: D(2) dopamine receptor (Homo sapiens, UniProt P14416)
Sequence (P14416 whole entry): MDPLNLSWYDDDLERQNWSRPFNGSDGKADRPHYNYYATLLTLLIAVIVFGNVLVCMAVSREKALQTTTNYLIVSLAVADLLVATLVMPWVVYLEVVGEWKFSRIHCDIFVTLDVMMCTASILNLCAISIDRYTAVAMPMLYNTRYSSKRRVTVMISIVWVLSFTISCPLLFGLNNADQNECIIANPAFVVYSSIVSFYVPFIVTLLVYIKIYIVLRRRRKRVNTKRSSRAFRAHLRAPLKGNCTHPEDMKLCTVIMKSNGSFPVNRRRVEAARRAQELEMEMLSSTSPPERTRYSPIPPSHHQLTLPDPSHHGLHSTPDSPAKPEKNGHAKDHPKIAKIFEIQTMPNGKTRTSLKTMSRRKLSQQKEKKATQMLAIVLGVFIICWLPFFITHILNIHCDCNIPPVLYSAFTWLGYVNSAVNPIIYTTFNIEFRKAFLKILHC
assay.info: Displacement of [125I]iodosulpiride from human cloned D2 receptor expressed in CHO cells
readout.label: Ki (µM)

record.smiles | Ki [µM]
Cc1ccc2c(OCCN3CCC(Cc4cc(F)c5c(c4)NC(=O)CO5)CC3)cc(Cl)cc2n1 | 2.51
Cc1ccc2c(OCCN3CCC(Cc4ccc5c(c4F)NC(=O)CO5)CC3)cc(Cl)cc2n1 | 1.26
Cc1ccc2c(OCCN3CCC(Cc4ccc5c(c4F)NC(=O)CO5)CC3)cc(F)cc2n1 | 1.26

(P) Cc1ccc2c(OCCN3CCC(Cc4cc5c(cc4F)OCC(=O)N5)CC3)cc(Cl)cc2n1
(Q) Cc1ccc2c(OCCN3CCC(Cc4ccc5c(c4)NC(=O)CO5)CC3)cccc2n1
(R) Cc1ccc2c(OCCN3CCC(Cc4cc5c(cc4F)OCC(=O)N5)CC3)cc(F)cc2n1
[Q] Given 3 compounds, produce a descending ranking by Ki. Give the labels in the order requested.
[A] P, R, Q

====

pKi: −log10 of the molar value.
System: 5-hydroxytryptamine receptor 2B (Homo sapiens) | Read-out: pKi
Sequence (P41595 whole entry): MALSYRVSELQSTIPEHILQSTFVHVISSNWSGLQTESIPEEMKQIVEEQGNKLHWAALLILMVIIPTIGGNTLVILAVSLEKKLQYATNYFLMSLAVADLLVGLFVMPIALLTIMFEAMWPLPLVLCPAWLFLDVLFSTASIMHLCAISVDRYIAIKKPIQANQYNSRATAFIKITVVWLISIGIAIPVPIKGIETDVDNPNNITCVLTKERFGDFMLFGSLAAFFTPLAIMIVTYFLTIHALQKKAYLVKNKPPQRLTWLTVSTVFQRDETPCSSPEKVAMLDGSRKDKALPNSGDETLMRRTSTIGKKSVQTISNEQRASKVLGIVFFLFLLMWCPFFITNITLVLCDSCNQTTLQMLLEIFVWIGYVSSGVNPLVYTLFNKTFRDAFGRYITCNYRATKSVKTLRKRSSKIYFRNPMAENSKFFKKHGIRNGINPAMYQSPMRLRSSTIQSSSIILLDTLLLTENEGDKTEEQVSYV
readout.label: pKi

(I) Cc1ccc2c(OCCN3CCC(Cc4cc(F)c5c(c4)NC(=O)CO5)CC3)cc(Cl)cc2n1
(II) Cc1ccc2c(OCCN3CCC(Cc4cc5c(cc4F)OCC(=O)N5)CC3)cc(F)cc2n1
[Q] When their pKi values are compared, which is larger, I or II ? Pick one and reply with its label.
[A] II
(II: 6.00, I: 5.50)

====

tested.target: 5-hydroxytryptamine receptor 2A (Homo sapiens)
Sequence (P28223 whole entry): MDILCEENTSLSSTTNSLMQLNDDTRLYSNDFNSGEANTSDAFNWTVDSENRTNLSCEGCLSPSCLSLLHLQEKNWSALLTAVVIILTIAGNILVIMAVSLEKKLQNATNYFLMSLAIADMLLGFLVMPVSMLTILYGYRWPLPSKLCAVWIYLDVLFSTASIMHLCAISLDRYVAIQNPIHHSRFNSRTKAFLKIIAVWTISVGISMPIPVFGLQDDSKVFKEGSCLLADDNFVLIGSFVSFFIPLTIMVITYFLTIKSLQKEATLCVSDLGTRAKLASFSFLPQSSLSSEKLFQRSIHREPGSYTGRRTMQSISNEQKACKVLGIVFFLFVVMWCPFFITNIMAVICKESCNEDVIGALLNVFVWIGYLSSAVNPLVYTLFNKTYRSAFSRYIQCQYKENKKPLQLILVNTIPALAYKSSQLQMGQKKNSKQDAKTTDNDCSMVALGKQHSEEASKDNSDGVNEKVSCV
readout.label: Ki (µM)

Past entries and their recorded results:
record.smiles | tested.target | endpoint.result
Cc1ccc2c(OCCN3CCC(Cc4cc(F)c5c(c4)NC(=O)CO5)CC3)cc(Cl)cc2n1 | 5-hydroxytryptamine receptor 2A (Homo sapiens) | 3.16
Cc1ccc2c(OCCN3CCC(Cc4ccc5c(c4)NC(=O)CO5)CC3)cccc2n1 | 5-hydroxytryptamine receptor 2A (Homo sapiens) | 3.16

(A) Cc1ccc2c(OCCN3CCC(Cc4cc5c(cc4F)OCC(=O)N5)CC3)cc(F)cc2n1
(B) Cc1ccc2c(OCCN3CCC(Cc4ccc5c(c4F)NC(=O)CO5)CC3)cc(Cl)cc2n1
[Q] Choose between A and B : whose measured Ki value is numerically larger? API: response body contains the label of the selected item.
[A] B
(B: 3.98 µM, A: 2 µM)
